- ASSAYED_TARGET: Yap3 (UniProt P38749)
- Sequence: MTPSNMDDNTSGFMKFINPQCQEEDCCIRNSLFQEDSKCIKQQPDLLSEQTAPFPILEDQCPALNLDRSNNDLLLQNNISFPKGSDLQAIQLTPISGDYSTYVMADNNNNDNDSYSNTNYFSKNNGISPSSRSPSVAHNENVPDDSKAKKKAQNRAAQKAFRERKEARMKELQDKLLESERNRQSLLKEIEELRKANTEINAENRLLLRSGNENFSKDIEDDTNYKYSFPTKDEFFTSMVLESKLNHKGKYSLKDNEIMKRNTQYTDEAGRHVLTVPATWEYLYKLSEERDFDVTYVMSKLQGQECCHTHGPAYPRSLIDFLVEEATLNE
- PROTOCOL_NOTES: PBM E-score (8-mer binding enrichment) (E-score (-0.5 to 0.5)); higher = stronger / more preferred TF binding
- APPLIED_CONDITIONS: protein concentration: 100 nM; construct: GST-full length
In all, about 33,000 sequences were measured (“E-score (-0.5 to 0.5)”: median about -0.0034, highest 2% from about 0.25 on). The list comes from a sample in which the highest values are over-represented; it also holds close analogues and randomly drawn sequences.
Response key: true (1) means PBM E-score >= 0.2; false (0) means PBM E-score < 0.2.

Some solved entries appear below for comparison.
PRIMARY_SEQUENCE | ANSWER_LABEL
AGAGCCCA | false (0)
CAAAATAA | true (1)
ACAAAATA | false (0)

Ask: Determine whether measured PBM E-score meets or exceeds 0.2 for GAAAAATA
Result: false (0)

Ask: Determine whether measured PBM E-score meets or exceeds 0.2 for CTTGAATA
Result: false (0)

Ask: Determine whether measured PBM E-score meets or exceeds 0.2 for AAAAAATA
Result: true (1)

Ask: Determine whether measured PBM E-score meets or exceeds 0.2 for CCATTGTC
Result: false (0)

Ask: Determine whether measured PBM E-score meets or exceeds 0.2 for TATGAATA
Result: true (1)

Ask: Determine whether measured PBM E-score meets or exceeds 0.2 for ATTGAAAT
Result: true (1)

Value source: the supplement of paper PMC3334620
